test: Human Plasma Protein Binding (Test B); format: in vitro ADME; settings: fraction unbound (fu)
Items are presented alongside their recorded Test B Human Plasma Protein Binding (% free).
readout: Test B Human Plasma Protein Binding (% free)

>  <smiles_code>
COc1cc(F)c(-c2ccc(CCC(=O)O)nn2)cc1C(=O)N[C@@H]1[C@H]2CC[C@H](C2)[C@@H]1C(=O)Nc1cccc(S(=O)(=O)C(F)(F)F)c1

>  <output_unit>
% free

>  <reading>
5

$$$$
>  <smiles_code>
COc1cc(F)c(O[C@H]2CC[C@@H](C(=O)O)CC2)cc1C(=O)N[C@H]1[C@@H](C(=O)Nc2ccc(F)c(C(F)(F)F)c2)[C@H]2CC[C@@H]1O2

>  <output_unit>
% free

>  <reading>
3.2

$$$$
>  <smiles_code>
COc1cc(F)c(O[C@H]2CC[C@@H](C(=O)O)CC2)cc1C(=O)N[C@@H]1[C@H]2CC[C@H](C2)[C@@H]1C(=O)Nc1ccc(C#N)c(C(F)(F)F)c1

>  <output_unit>
% free

>  <reading>
0.94

$$$$
>  <smiles_code>
COc1cc(F)c(O[C@H]2CC[C@@](C)(C(=O)O)CC2)cc1C(=O)N[C@@H]1[C@H]2CC[C@H](C2)[C@@H]1C(=O)N[C@@H]1CCN(S(=O)(=O)C(F)(F)F)C1

>  <output_unit>
% free

>  <reading>
8.6

$$$$
>  <smiles_code>
COc1cc(F)c(-c2ccc(OCC(=O)O)cc2)cc1C(=O)N[C@@H]1[C@H]2CC[C@H](C2)[C@@H]1C(=O)Nc1cccc(S(=O)(=O)C(F)(F)F)c1

>  <output_unit>
% free

>  <reading>
0.35

$$$$
